test: label from the status in PepcDB records

{"sequence entry": "MPAFSLLPKPSALLPLLLAAAFLPPAFVHAEEEAAKDQPQAPVERPAVSERSQDEAKGLERQLPEDGQQILKAGDESFLTLWLPANTAEAEGVVILVPGDGESPDWPQAIGPLRRKLPDAGWQTLSLALPDPQSTAPVTRPAESAASASADKDASAADSASKPDVKGESGNAPAPESTAEAGSGEPAQSEDQAPPPAIDPVEQRKAHAERVMARLQASIDLALQHEPKSVVLLGHGTGAYWAARYLAEKEPAEIHNLLLVAAEVPRDFRPALEDMVPKLKLATGDFYYRDARADREAARLRMQAGKRQKHPAYVQIAMQALPADPKAEQEQLYRRIRGWLSLHLQADAQKPAE", "protein production": "failed"}
{"sequence entry": "MVKKIVNPINIIVVVMHISVSIYALFVNVPFKAELFKDNVVLCIYVITFYIGFLLLGDFFRERKIFRKRNDGNRESKTISIIGGIFLFAGILLGMSSVMTIYNIKVDASEYSIGRIIFDTIKVDNVKRESTTSKPQGIFVQRSITTIRTEEVDGISVKSNKRVEFKHCYLYGWQVIEGKIYNVKYLPTTHRILSIEEKK", "protein production": "failed"}
